System: T-47D
Assay: Caspase cascade activation (Ac-DEVD-R110 fluorogenic substrate) in T-47D cells; note: test concentration or dose not given here
Type: cell-based, Human
Details: 24 h incubation, ratio of net RFU to that of control samples
hey, just use Criterion met if measured Caspase Activity Ratio is less than 20, otherwise Criterion not met

Ask: Here's an entry: `O=C(Nc1cccc(C(F)(F)F)c1)C(=Cc1ccco1)C(=O)Nc1cccc(C(F)(F)F)c1` . Is its Caspase Activity Ratio below 20?
Reply: Criterion not met

Ask: Is the reported Caspase Activity Ratio for `CC(C)c1ccc(C=C(C(=O)Nc2cccc(C(F)(F)F)c2)C(=O)Nc2cccc(C(F)(F)F)c2)cc1` strictly below 20?
Reply: Criterion met

Ask: Quick check: Caspase Activity Ratio of `O=C(Nc1cccc(C(F)(F)F)c1)C(=Cc1ccccc1)C(=O)Nc1cccc(C(F)(F)F)c1` under 20?
Reply: Criterion met

Ask: Is Caspase Activity Ratio of `COc1cccc(NC(=O)C(=Cc2ccc(C(C)C)cc2)C(=O)Nc2cccc(OC)c2)c1` strictly below 20?
Reply: Criterion not met

Ask: Identify whether the compound `CC(C)c1ccc(C=C(C(=O)Nc2cccc(Cl)c2)C(=O)Nc2cccc(Cl)c2)cc1` records Caspase Activity Ratio below 20.
Reply: Criterion not met

Ask: Does this compound meet the criterion Caspase Activity Ratio < 20? `Cc1ccc(C=C(C(=O)Nc2cccc(C(F)(F)F)c2)C(=O)Nc2cccc(C(F)(F)F)c2)c(C)c1`
Reply: Criterion not met

Ask: Identify whether the compound `COc1cccc(NC(=O)C(=Cc2ccc(C(F)(F)F)cc2)C(=O)Nc2cccc(OC)c2)c1` records Caspase Activity Ratio below 20.
Reply: Criterion not met

Ask: Answer whether the compound `O=C(Nc1cccc(C(F)(F)F)c1)C(=Cc1ccc(Cl)cc1Cl)C(=O)Nc1cccc(C(F)(F)F)c1` has Caspase Activity Ratio strictly less than 20
Reply: Criterion met

Ask: Field: below-cutoff. Rule: recorded Caspase Activity Ratio strictly less than 20. Subject: `CC(C)c1ccc(CC(C(=O)Nc2cccc(C(F)(F)F)c2)C(=O)Nc2cccc(C(F)(F)F)c2)cc1`
Reply: Criterion met
